target.system: MAO-A (Mus musculus)
Construct: from tissue; host or cells: mouse brain
Sequence (Q64133 1-526): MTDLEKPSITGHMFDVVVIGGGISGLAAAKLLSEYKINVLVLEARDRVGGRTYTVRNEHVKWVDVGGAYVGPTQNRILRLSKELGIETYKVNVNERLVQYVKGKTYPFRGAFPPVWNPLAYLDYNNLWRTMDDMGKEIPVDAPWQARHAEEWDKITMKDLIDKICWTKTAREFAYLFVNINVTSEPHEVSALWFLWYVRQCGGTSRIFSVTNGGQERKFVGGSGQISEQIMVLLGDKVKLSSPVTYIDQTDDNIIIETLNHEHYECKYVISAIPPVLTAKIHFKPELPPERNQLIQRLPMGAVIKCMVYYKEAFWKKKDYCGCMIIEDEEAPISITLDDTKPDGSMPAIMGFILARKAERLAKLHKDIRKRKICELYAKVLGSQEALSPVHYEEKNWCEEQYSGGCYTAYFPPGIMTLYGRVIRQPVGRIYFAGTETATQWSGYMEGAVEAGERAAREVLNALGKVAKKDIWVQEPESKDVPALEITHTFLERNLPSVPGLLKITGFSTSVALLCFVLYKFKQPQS
assay.text: Inhibition of MAO activity ex vivo (brain)
Assay type: in vivo, mice
applied.conditions: mice, brain tissue
Please respond with reported MAO-A Inhibition Ex vivo ED50 for every item in the list.

Use these answered entries as a reference point.
compound	MAO-A Inhibition Ex vivo ED50
C#CCNC1CCc2ccc(OC(=O)N(C)CCCCCC)cc21 (stereo not shown)	>100 µmol/kg
C#CCNC1CCc2ccc(OC(=O)N(C)CCCC)cc21 (stereo not shown)	>>100 μmoles/kg
C#CCNC1CCc2ccc(OC(=O)N(C)CCC)cc21 (stereo not shown)	>>440 μmoles/kg

Now for the compound whose MAO-A Inhibition Ex vivo ED50 we want.
q: What value of MAO-A Inhibition Ex vivo ED50 on MAO-A (Mus musculus) does C#CCNC1CCc2ccc(OC(=O)N(C)Cc3ccccc3)cc21 (stereo not shown) have?
a: >300 µmol/kg
